Recorded Terminal half-lives (t1/2) by entry
Details: bovine, in vivo, im, 5 mg/kg
assay.endpoint: Terminal half-lives (t1/2)

compound="CO/N=C(\\C(=O)N[C@@H]1C(=O)N2C(C(=O)[O-])=C(C[n+]3cccc4c3CCCC4)CS[C@H]12)c1csc(N)n1 [Example 22]" reported="8.77 h"
compound="CO/N=C(\\C(=O)N[C@@H]1C(=O)N2C(C(=O)[O-])=C(C[n+]3cccc4c3CCCC4)CS[C@H]12)c1csc(N)n1 [Dihydroiodide, reference compound]" reported="4.19 h"
compound="CO/N=C(\\C(=O)N[C@@H]1C(=O)N2C(C(=O)[O-])=C(C[n+]3cccc4c3CCCC4)CS[C@H]12)c1csc(N)n1 [Example 17]" reported="17.8 h"

====

Conditions: bovine, in vivo, im, 5 mg/kg
assay.endpoint: Terminal half-lives (t1/2) (h)

compound="CO/N=C(\\C(=O)N[C@@H]1C(=O)N2C(C(=O)[O-])=C(C[n+]3cccc4c3CCCC4)CS[C@H]12)c1csc(N)n1 [Example 19]" measurement_units=h reported=7.07
compound="CO/N=C(\\C(=O)N[C@@H]1C(=O)N2C(C(=O)[O-])=C(C[n+]3cccc4c3CCCC4)CS[C@H]12)c1csc(N)n1 [Example 21]" measurement_units=h reported=9.96
compound="CO/N=C(\\C(=O)N[C@@H]1C(=O)N2C(C(=O)[O-])=C(C[n+]3cccc4c3CCCC4)CS[C@H]12)c1csc(N)n1 [Example 20]" measurement_units=h reported=9.39

====

Recorded Terminal half-lives (t1/2) by entry
Settings: bovine, in vivo, im, 5 mg/kg
assay.endpoint: Terminal half-lives (t1/2) (h)

compound="CO/N=C(\\C(=O)N[C@@H]1C(=O)N2C(C(=O)[O-])=C(C[n+]3cccc4c3CCCC4)CS[C@H]12)c1csc(N)n1 [Example 2]" reported=18.8
compound="CO/N=C(\\C(=O)N[C@@H]1C(=O)N2C(C(=O)[O-])=C(C[n+]3cccc4c3CCCC4)CS[C@H]12)c1csc(N)n1 [Example 23]" reported=12.70
compound="CO/N=C(\\C(=O)N[C@@H]1C(=O)N2C(C(=O)[O-])=C(C[n+]3cccc4c3CCCC4)CS[C@H]12)c1csc(N)n1 [Example 13]" reported=9.21
